The reported measurements were obtained from patent US20160002204A1.

# Study System: GLS1 (purified recombinant human GAC) (Homo sapiens, UniProt O94925)
# Assay Info: GLS1 enzymatic activity assay (dual-coupled, Amplex UltraRed/resorufin)
Readout Type: IC50

Example entries begin here.
O=C(Nc1ccn(CCC(F)Cn2cc(C(=O)NCc3cc(C(F)(F)F)ccn3)nn2)c(=O)c1F)C(=O)c1ccccc1 (centres unmarked) ... < 100 nM
O=C(Nc1ccn(CCCCn2cc(C(=O)NCc3cccc(OC(F)(F)F)c3)nn2)c(=O)c1)OCc1cccc(OC(F)(F)F)c1 ... < 100 nM

Query :: Param item = O=C(Nc1ccn(CCC(F)Cn2cc(C(=O)NCc3cccc(C(F)(F)F)c3)nn2)c(=O)c1F)C(=O)N1CCCCC1 (centres unmarked) ; retrieve measured IC50.
Result :: < 100 nM

Query :: Consider next the molecule O=C(Nc1ccn(CCCCc2nnc(C(=O)NCc3cc(C(F)(F)F)ccn3)s2)c(=O)c1F)C(=O)N1CCCCC1 in the same way.
Result :: < 100 nM

Query :: Consider next the molecule Nc1ccn(CCCCc2ccc(NC(=O)Cc3cccc(OC(F)(F)F)c3)nn2)c(=O)n1 in the same way.
Result :: 500 to 5000 nM

Query :: Consider next the molecule CC(C)(C)OC(=O)N[C@H]1CC[C@@H](CC(=O)Nc2ccn(CCC(F)Cn3cc(C(=O)NCc4cccc(OC(F)(F)F)c4)nn3)c(=O)c2)CC1 (some centres unmarked) in the same way.
Result :: < 100 nM

Query :: Consider next the molecule CCOC(=O)c1cn(CC(F)CCn2ccc(NC(=O)CC3CCCCC3)c(F)c2=O)nn1 (centres unmarked) in the same way.
Result :: 500 to 5000 nM

Query :: Consider next the molecule CC(C)COC(=O)Nc1ccn(CCC(F)Cn2cc(C(=O)NCc3cccc(OC(F)(F)F)c3)nn2)c(=O)n1 (centres unmarked) in the same way.
Result :: < 100 nM

Query :: Consider next the molecule Nc1ccn(CCCCn2cc(C(=O)NCc3cccc(C(F)(F)F)c3)nn2)c(=O)c1 in the same way.
Result :: 500 to 5000 nM

Query :: Consider next the molecule CC(C)CC(=O)Nc1ccn(CCCCc2ccc(NC(=O)Cc3cccc(OC(F)(F)F)c3)nn2)c(=O)n1 in the same way.
Result :: < 100 nM

----------
pIC50 overview
# Study System: GLS1 (purified recombinant human GAC) (Homo sapiens, UniProt O94925)
# Assay Info: GLS1 enzymatic activity assay (dual-coupled, Amplex UltraRed/resorufin)
pIC50: −log10 of the molar value.

Example entries begin here.
O=C(CN1CCCC1)Nc1ccn(CCC(F)Cn2cc(C(=O)NCc3cccc(OC(F)(F)F)c3)nn2)c(=O)c1F (stereo not shown) ... > 7.00
O=C(Cc1ccc(F)cc1F)Nc1ccn(CCC(F)Cn2cc(C(=O)NCc3cccc(OC(F)(F)F)c3)nn2)c(=O)c1F (stereo not shown) ... > 7.00
O=C(Nc1ccn(CCCCc2nnc(C(=O)NCc3cc(C(F)(F)F)ccn3)s2)c(=O)c1F)OC1CCC1 ... > 7.00
O=C(Nc1ccn(CCC(F)Cn2cc(C(=O)NCc3cccc(OC(F)(F)F)c3)nn2)c(=O)n1)OCc1cccc(OC(F)(F)F)c1 (stereo not shown) ... > 7.00

Query :: Field: pIC50 (GLS1 (purified recombinant human GAC) (Homo sapiens, UniProt O94925)). Entry: O=C(Cc1c(F)cccc1F)Nc1ccn(CCC(F)Cn2cc(C(=O)NCc3cccc(OC(F)(F)F)c3)nn2)c(=O)c1F (stereo not shown)
Result :: > 7.00

Query :: Consider next the molecule O=C(Cc1cccc(OC(F)(F)F)c1)Nc1ccc(CCCCn2ccc(NC(=O)Cc3ccccn3)nc2=O)nn1 in the same way.
Result :: > 7.00

Query :: Consider next the molecule COc1cccc(CC(=O)Nc2ccn(CCC(F)Cn3cc(C(=O)NCc4cccc(OC(F)(F)F)c4)nn3)c(=O)c2)n1 (stereo not shown) in the same way.
Result :: > 7.00

Query :: Consider next the molecule CCN1CCC(CC(=O)Nc2ccn(CCC(F)Cn3cc(C(=O)NCc4cccc(OC(F)(F)F)c4)nn3)c(=O)c2)CC1 (stereo not shown) in the same way.
Result :: 6.30 to 7.00

----------
# Study System: GLS1 (purified recombinant human GAC) (Homo sapiens, UniProt O94925)
# Sequence (O94925 55-598 isoform O94925-3 limits assumed): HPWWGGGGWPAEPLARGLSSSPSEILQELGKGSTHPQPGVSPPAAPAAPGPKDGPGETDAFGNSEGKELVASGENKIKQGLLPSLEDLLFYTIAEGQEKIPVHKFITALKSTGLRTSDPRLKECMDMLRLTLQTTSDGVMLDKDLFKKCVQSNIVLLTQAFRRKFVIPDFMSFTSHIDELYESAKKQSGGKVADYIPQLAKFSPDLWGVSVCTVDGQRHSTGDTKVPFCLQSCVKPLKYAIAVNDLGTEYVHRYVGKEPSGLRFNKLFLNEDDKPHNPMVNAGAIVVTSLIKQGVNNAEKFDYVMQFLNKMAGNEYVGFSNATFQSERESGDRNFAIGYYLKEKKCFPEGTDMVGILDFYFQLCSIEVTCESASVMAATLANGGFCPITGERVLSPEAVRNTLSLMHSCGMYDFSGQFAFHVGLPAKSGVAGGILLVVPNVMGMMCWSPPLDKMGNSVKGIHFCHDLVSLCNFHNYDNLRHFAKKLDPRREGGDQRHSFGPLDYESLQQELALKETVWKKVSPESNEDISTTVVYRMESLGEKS
# Assay Info: GLS1 enzymatic activity assay (dual-coupled, Amplex UltraRed/resorufin)
pIC50: −log10 of the molar value.
pIC50 overview

Example entries begin here.
CS(=O)(=O)CCC(=O)Nc1ccn(CCCCc2ccc(NC(=O)Cc3cccc(OC(F)(F)F)c3)nn2)c(=O)n1 ... > 7.00
O=C(CN1CCCCC1)Nc1ccn(CCC(F)Cn2cc(C(=O)NCc3cc(C(F)(F)F)ccn3)nn2)c(=O)c1F (centres unmarked) ... 6.30 to 7.00
O=C(CN1CCSCC1)Nc1ccn(CCC(F)Cn2cc(C(=O)NCc3cccc(OC(F)(F)F)c3)nn2)c(=O)c1 (centres unmarked) ... > 7.00
CC(C)CC(=O)Nc1ccn(CCCCn2cc(C(=O)NCc3cccc(OC(F)(F)F)c3)nn2)c(=O)c1 ... > 7.00
O=C(Nc1ccn(CCC(F)Cn2cc(C(=O)NCc3cc(C(F)(F)F)ccn3)nn2)c(=O)n1)OCc1ccccc1F (centres unmarked) ... > 7.00

Query :: Param item = O=C(CC1CCC1)Nc1cnn(CCC(F)Cn2cc(C(=O)NCc3cc(C(F)(F)F)ccn3)nn2)c(=O)c1 (centres unmarked) ; retrieve measured pIC50.
Result :: > 7.00

Query :: Consider next the compound CCOC(=O)N1CCC(CC(=O)Nc2ccn(CCC(F)Cn3cc(C(=O)NCc4cc(C(F)(F)F)ccn4)nn3)c(=O)c2F)CC1 (centres unmarked) in the same way.
Result :: > 7.00

Query :: Consider next the compound O=C(CN1CCCC(F)C1)Nc1ccn(CC(F)CCn2cc(C(=O)NCc3cccc(OC(F)(F)F)c3)nn2)c(=O)c1 (centres unmarked) in the same way.
Result :: > 7.00

----------
# Study System: GLS1 (purified recombinant human GAC) (Homo sapiens, UniProt O94925)
# Sequence (O94925 55-598 isoform O94925-3 limits assumed): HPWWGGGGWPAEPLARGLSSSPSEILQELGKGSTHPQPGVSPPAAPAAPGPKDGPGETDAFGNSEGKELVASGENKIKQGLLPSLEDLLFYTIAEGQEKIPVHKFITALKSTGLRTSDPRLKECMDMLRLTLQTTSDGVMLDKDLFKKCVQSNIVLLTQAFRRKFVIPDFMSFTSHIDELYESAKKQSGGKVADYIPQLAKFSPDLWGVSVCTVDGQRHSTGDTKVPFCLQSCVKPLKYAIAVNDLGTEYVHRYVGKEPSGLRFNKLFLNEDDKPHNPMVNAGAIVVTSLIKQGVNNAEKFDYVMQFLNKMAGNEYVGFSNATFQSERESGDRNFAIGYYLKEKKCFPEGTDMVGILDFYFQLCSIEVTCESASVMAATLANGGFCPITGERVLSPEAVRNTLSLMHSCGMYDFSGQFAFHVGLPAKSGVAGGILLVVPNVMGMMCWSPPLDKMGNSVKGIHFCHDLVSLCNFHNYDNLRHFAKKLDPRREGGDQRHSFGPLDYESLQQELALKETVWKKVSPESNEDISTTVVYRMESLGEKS
# Assay Info: GLS1 enzymatic activity assay (dual-coupled, Amplex UltraRed/resorufin)
# Experimental: GLS1 Enzymatic Activity Assay The inhibition of purified recombinant human GAC by varying concentrations of inhibitors is assessed via a dual-coupled enzymatic assay. […] The production of resorufin was monitored on a Perkin Elmer Envision plate reader (excitation 530 nm, emission 590 nm) either in a kinetics or endpoint mode (at 20 minutes). IC50 values were calculated using a four-parameter logistic curve fit.
IC50 overview

CC(C)OC(=O)Nc1ccn(CCC(F)Cn2cc(C(=O)NCc3cccc(OC(F)(F)F)c3)nn2)c(=O)n1 (stereo not shown) ... < 100 nM
O=C(Cc1ccccc1)Nc1ccn(CCCCc2nnc(NC(=O)Cc3cccnc3)s2)c(=O)n1 ... < 100 nM
O=C(NCc1cccnc1)c1ccn(CCCCn2cc(C(=O)NCc3cccc(OC(F)(F)F)c3)nn2)c(=O)c1 ... 100 to 500 nM
O=C(CC1CCN(C(=O)CC(F)(F)F)CC1)Nc1ccn(CCC(F)Cn2cc(C(=O)NCc3cccc(OC(F)(F)F)c3)nn2)c(=O)c1F (stereo not shown) ... < 100 nM
O=C(Cc1cccc(N2CCOCC2)c1)Nc1ccn(CCC(F)Cn2cc(C(=O)NCc3cccc(OC(F)(F)F)c3)nn2)c(=O)c1 (stereo not shown) ... < 100 nM
Cc1ccc(CNC(=O)c2cn(CC(F)CCn3ccc(NC(=O)CC4CCCCO4)cc3=O)nn2)cn1 (stereo not shown) ... 100 to 500 nM

Query :: Param item = O=C(Nc1ccn(CCCCn2cc(C(=O)NCc3ccccn3)nn2)c(=O)c1)OCc1ccccc1 ; retrieve measured IC50.
Result :: 100 to 500 nM
